System: Plutella xylostella GSTs
Assay summary: Inhibition of total GSTs enzyme of Plutella xylostella (CDNB method)
Assay type: biochemical
Assay context: 100 μM
Method: Experiment: About 50 mg of larvae/nymphs of nine major pests such as Plutella xylostella, Mythimna separata, Pyrausta nubilalis, Chilo suppressalis, Nilaparvata lugens, Spodoptera frugiperda, Helicoverpa armigera, Carposina sasakii, Spodoptera litura were taken, grounded in a mortar pre-cooled at −80° C., and then 1 mL of 100 mM sodium phosphate buffer (1 mM EDTA, pH 7.2) was added and fully homogenized. […] The protein concentrations of the above total enzymes were determined using the BCA method. […]
Measured attribute: 100 μM Inhibition rate % (%)
Entry rule: numbers only, all in %.

Recorded 100 μM Inhibition rate %, per entry:
                                   molecule  unit_spec  observed
0  O=C(CC12C[C@H]3C[C@H](C1)C[C@@H](C2)C3)NNC(=O)c1cc(-c2ccccc2)nn1-c1ccccc1          %     25.09
1  CN(C)S(=O)(=O)c1cccc(C(=O)NNC(=O)c2cc(-c3ccccc3)nn2-c2ccccc2)c1          %      3.94
2  CN(C)S(=O)(=O)c1ccc(C(=O)NNC(=O)c2cc(-c3ccccc3)nn2-c2ccccc2)cc1          %      9.32
3  CC1(c2ccccc2)NC(=O)N(NC(=O)c2cc(-c3ccccc3)nn2-c2ccccc2)C1=O (stereo not drawn)          %     15.08
4  O=C(NN1C(=O)NC2(CCCCC2)C1=O)c1cc(-c2ccccc2)nn1-c1ccccc1          %     21.15

So what does the record say about 100 μM Inhibition rate % for N#Cc1ccc(OCC(=O)NNC(=O)c2cc(-c3ccccc3)nn2-c2ccccc2)cc1 ?
23.03
